system: GLXMA; assay: Pre-emergence effects on crop plants (Table D4); type: in vivo, Glycine max; details: crop plant; application rate 80 g/ha; visual grading after ca. 3 weeks
PARAMETER: pre-emergence activity against GLXMA (%)

Some molecules with known pre-emergence activity against GLXMA results, for comparison:
O=C1N(Cc2ccc(Cl)s2)CCCC12CCCN(Cc1ccc(Cl)s1)C2=O (racemic) :: 20
O=C1N(Cc2ccccc2F)CCCC12CCCN(Cc1ccccc1F)C2=O (single isomer, unassigned) :: 0

[P] O=C1N(Cc2ccccc2Cl)CCCC12CCN(Cc1cccc(F)c1F)C2=O (racemic)
[Q] COc1ccccc1CN1CCCC2(CCCN(Cc3cccc(F)c3F)C2=O)C1=O (racemic)
Name the one with the greater pre-emergence activity against GLXMA value, either P or Q as given. Please indicate the selected item by its label. Q
